Tested on: Pseudomonas aeruginosa V-1
assay.remarks: MIC, in vitro antibacterial activity (standard strains)
Format: cell-based
assay.context: Pseudomonas aeruginosa, V1; 10^6 cells/ml; Gram -; read-out: MIC
readout.type: MIC (µg/mL)
Field: numeric (µg/mL). Do not append units.

Here's what some known entries look like.
molecule	units.text	numeric.readout
C[C@H]1CN(c2c(F)cc3c(=O)c(C(=O)O)cn4c3c2OC[C@@H]4C)C[C@H]1N.Cl (mixture of isomers) [Example 31]	µg/mL	0.39
CCNCC1CN(c2c(F)cc3c(=O)c(C(=O)O)cn(C4CC4)c3c2Cl)CC1C (stereo not shown) [Example 14]	µg/mL	0.78
C[C@H]1CN(c2c(F)cc3c(=O)c(C(=O)O)cn(C4CC4)c3c2F)C[C@H]1N.Cl (relative stereo) [Example 20]	µg/mL	0.2

Turning to the following molecule.
Task: Answer with reported MIC of CCNCC1CN(c2c(F)cc3c(=O)c(C(=O)O)cn(C4CC4)c3c2F)CC1C (stereo not shown) [Example 15]
Output: 0.78
